Each recorded value in this set is attributed to ChEMBL document CHEMBL3784974.

# test-target: Phosphatidylinositol 4,5-bisphosphate 3-kinase catalytic subunit delta isoform (Homo sapiens, UniProt O00329)
# Sequence (O00329 whole entry, canonical isoform): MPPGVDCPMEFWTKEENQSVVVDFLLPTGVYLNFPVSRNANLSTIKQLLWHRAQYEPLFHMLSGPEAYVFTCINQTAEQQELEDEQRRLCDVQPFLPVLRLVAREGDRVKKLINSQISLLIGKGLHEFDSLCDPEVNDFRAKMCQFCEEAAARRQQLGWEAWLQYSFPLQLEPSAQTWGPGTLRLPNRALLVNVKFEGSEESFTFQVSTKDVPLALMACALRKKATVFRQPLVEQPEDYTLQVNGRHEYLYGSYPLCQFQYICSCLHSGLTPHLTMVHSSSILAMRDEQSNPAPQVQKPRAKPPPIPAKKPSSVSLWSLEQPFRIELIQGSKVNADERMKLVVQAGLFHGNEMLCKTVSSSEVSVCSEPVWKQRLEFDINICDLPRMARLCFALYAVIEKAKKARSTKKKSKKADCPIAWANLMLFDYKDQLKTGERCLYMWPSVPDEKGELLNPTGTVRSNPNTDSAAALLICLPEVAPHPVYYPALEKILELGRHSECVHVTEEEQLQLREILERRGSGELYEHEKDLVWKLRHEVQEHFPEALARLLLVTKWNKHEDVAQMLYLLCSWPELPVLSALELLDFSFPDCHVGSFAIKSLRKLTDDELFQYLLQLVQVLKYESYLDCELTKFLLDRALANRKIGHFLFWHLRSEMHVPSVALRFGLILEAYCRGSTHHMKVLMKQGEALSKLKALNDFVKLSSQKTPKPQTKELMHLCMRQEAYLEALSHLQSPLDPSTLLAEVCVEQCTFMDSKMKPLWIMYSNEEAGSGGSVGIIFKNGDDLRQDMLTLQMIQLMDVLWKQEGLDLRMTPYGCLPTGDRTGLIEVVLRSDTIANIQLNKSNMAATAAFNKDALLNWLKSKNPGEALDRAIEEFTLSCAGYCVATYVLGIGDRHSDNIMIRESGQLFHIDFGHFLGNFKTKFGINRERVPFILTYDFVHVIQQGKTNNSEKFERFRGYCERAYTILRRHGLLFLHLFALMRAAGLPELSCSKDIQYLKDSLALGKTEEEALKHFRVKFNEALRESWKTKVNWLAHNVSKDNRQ
# run-description: Inhibition of histidine-tagged recombinant human full length PI3Kdelta expressed in baculovirus preincubated for 15 mins followed by addition of cold ATP/gamma32P-ATP measured after 20 mins in presence of MgCl2
Kindly apply the following: true (1) if IC50 is less than 200 nM, false (0) in every other case.

structure-smiles-string | group-label
CC(=O)Nc1nc(C)c(-c2ccc(Cl)c(S(=O)(=O)Nc3ccc(F)cc3)c2)s1 | true (1)
COc1ccc(-c2sc(NC(C)=O)nc2C)cc1S(=O)(=O)NCCO | false (0)
CC(=O)Nc1nc(C)c(-c2ccc(Cl)c(S(=O)(=O)Nc3ccc(O)cc3)c2)s1 | true (1)

Exam item: hey, is IC50 for COc1ccc(-c2sc(NC(=O)C3CCCC3)nc2C)cc1S(=O)(=O)Nc1ccc(O)cc1 lower than 200 nM or not?
Marked response: true (1)

Exam item: Would you kindly verify if IC50 of COc1ccc(-c2sc(NC(=O)C(C)(C)C)nc2C)cc1S(=O)(=O)Nc1ccc(O)cc1 is strictly less than 200 nM?
Marked response: false (0)
